Provenance of the data: patent US11040036B2

# SYSTEM NAME: PKR R510Q (Homo sapiens, UniProt P30613, R510Q)
# Sequence (P30613 whole entry R510Q): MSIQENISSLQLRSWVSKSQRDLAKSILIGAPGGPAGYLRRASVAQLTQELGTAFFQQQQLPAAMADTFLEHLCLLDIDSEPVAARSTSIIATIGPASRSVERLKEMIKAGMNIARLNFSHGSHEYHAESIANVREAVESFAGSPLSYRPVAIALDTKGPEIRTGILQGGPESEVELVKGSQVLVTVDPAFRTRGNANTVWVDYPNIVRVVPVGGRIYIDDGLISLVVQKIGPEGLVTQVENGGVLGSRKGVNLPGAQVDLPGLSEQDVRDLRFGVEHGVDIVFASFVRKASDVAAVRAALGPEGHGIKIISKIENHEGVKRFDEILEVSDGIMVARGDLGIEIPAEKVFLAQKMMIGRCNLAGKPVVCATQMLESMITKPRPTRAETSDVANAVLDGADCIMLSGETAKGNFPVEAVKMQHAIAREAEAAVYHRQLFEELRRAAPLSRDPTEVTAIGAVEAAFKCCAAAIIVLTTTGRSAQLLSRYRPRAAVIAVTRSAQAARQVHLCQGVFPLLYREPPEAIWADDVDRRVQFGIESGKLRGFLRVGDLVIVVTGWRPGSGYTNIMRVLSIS
# TEST NAME: PKR mutant assay (AC50), PKR R510Q
# Assay type: biochemical
# EXPERIMENTAL CONDITIONS: PKR R510Q mutant enzyme; read-out: PK R510Q AC50
REPORTED ENDPOINT: AC50

Solved cases (5 shown):
> print(dat)
                        structure.as.smiles         result
1  Cn1c2nc(Cc3cc[nH]n3)sc2c2cnn(Cc3nccs3)c(=O)c21       < 300 nM
2  Cn1c2nc(Cc3n[nH]cc3F)sc2c2cnn(Cc3nc(N)ccc3F)c(=O)c21       < 300 nM
3  Cc1ccc(Cn2ncc3c4sc(Cc5cc[nH]n5)nc4n(C)c3c2=O)nc1N       < 300 nM
4  Cn1c2nc(Cc3cc[nH]n3)sc2c2cnn(Cc3cnc(N)o3)c(=O)c21  301 to 800 nM
5  Cn1c2nc(Cc3cc[nH]n3)sc2c2cnn(Cc3csc(C(N)=O)n3)c(=O)c21       < 300 nM

Could you share which AC50 value was measured for `Cn1c2nc(Cc3cc[nH]n3)sc2c2cnn(Cc3ccns3)c(=O)c21` ?
< 300 nM

Could you share which AC50 value was measured for `Cn1c2nc(Cc3n[nH]cc3F)sc2c2cnn(Cc3ccc[nH]c3=O)c(=O)c21` ?
< 300 nM

Could you share which AC50 value was measured for `Cn1c2nc(Cc3cc[nH]n3)sc2c2cnn(Cc3c[nH]c(N)n3)c(=O)c21` ?
< 300 nM

Could you share which AC50 value was measured for `Cn1c2nc(C(=O)c3cc[nH]n3)sc2c2cnn(Cc3cc[nH]n3)c(=O)c21` ?
301 to 800 nM

Could you share which AC50 value was measured for `Cn1c2nc(Cc3cc[nH]n3)sc2c2cnn(Cc3ncoc3C(N)=O)c(=O)c21` ?
< 300 nM

Could you share which AC50 value was measured for `Cn1c2nc(Cc3cc[nH]n3)sc2c2cnn(Cc3ccn[nH]3)c(=O)c21` ?
< 300 nM

Could you share which AC50 value was measured for `Cn1cc(C#N)c(Cn2ncc3c4sc(Cc5cc[nH]n5)nc4n(C)c3c2=O)n1` ?
< 300 nM

Could you share which AC50 value was measured for `Cn1cc(F)c(Cn2ncc3c4sc(Cc5cc[nH]n5)nc4n(C)c3c2=O)n1` ?
< 300 nM

Could you share which AC50 value was measured for `Cn1c2nc(Cc3cc[nH]n3)sc2c2cnn(Cc3ccnc(N)n3)c(=O)c21` ?
< 300 nM

Could you share which AC50 value was measured for `Cn1c2nc(Cn3ccnn3)sc2c2cnn(Cc3cc[nH]n3)c(=O)c21` ?
< 300 nM

* * *

Below is a list of entries, each paired with its recorded AC50 value.
# SYSTEM NAME: wild type PKR (Homo sapiens)
# TEST NAME: PKR mutant assay (AC50), wild type PKR
# Format: biochemical
# EXPERIMENTAL CONDITIONS: wild type PKR enzyme; read-out: PKR WT AC50

# value lookup — system wild type PKR (Homo sapiens), readout AC50, item `Cn1c2nc(Cc3c[nH]nn3)sc2c2cnn(Cc3nccs3)c(=O)c21`
301 to 800 nM

# value lookup — system wild type PKR (Homo sapiens), readout AC50, item `Cn1nncc1Cn1ncc2c3sc(Cc4cc[nH]n4)nc3n(C)c2c1=O`
> 800 nM

# value lookup — system wild type PKR (Homo sapiens), readout AC50, item `Cn1c2nc(Cn3ccnn3)sc2c2cnn(Cc3cc[nH]n3)c(=O)c21`
< 300 nM

* * *

# SYSTEM NAME: wild type PKR (Homo sapiens, UniProt P30613)
# Sequence (P30613 whole entry): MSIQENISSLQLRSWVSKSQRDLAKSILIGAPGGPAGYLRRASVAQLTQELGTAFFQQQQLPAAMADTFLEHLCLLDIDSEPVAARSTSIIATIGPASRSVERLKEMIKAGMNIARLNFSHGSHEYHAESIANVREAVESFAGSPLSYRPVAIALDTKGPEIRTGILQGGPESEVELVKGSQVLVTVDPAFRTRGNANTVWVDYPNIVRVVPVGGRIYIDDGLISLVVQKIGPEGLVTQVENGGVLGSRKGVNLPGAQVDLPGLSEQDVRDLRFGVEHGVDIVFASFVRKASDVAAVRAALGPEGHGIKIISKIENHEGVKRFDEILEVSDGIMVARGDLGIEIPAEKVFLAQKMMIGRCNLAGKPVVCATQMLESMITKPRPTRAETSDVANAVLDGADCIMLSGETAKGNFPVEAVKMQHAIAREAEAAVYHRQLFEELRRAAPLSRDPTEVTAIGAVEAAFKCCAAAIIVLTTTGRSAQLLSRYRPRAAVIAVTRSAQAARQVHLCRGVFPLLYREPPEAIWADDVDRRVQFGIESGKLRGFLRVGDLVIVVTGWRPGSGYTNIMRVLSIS
# TEST NAME: Cell based ATP assay in purified red blood cells
# Design: endogenous in cells; host or cells: purified red blood cells from blood of healthy volunteers
# EXPERIMENTAL CONDITIONS: RBCs, overnight at 37° C., ATP levels by Cell-Titer-Glo
REPORTED ENDPOINT: AC50

> print(dat)
                        structure.as.smiles     result
1  Cn1ccc(Cn2ncc3c4sc(Cc5cc[nH]n5)nc4n(C)c3c2=O)n1  ≤ 1000 nM

Could you share which AC50 value was measured for `Cn1c2nc(Cc3cc[nH]n3)sc2c2cnn(Cc3cccc(=O)[nH]3)c(=O)c21` ?
> 1000 nM

Could you share which AC50 value was measured for `Cn1c2nc(Cc3ccccn3)sc2c2cnn(Cc3ccccn3)c(=O)c21` ?
≤ 1000 nM

Could you share which AC50 value was measured for `Cn1c2nc(Cc3nc(N)sc3F)sc2c2cnn(Cc3c[nH]nn3)c(=O)c21` ?
≤ 1000 nM

Could you share which AC50 value was measured for `Cn1cc(Cl)c(Cn2ncc3c4sc(Cc5cc[nH]n5)nc4n(C)c3c2=O)n1` ?
≤ 1000 nM

* * *

# SYSTEM NAME: wild type PKR (Homo sapiens)
# TEST NAME: PKR mutant assay (AC50), wild type PKR
# Format: biochemical
# EXPERIMENTAL CONDITIONS: wild type PKR enzyme; read-out: PKR WT AC50
REPORTED ENDPOINT: AC50

> print(dat)
                        structure.as.smiles                   system.name         result
1  Cn1c2nc(Cc3cscn3)sc2c2cnn(Cc3cscn3)c(=O)c21  wild type PKR (Homo sapiens)       < 300 nM
2  Cn1c2nc(Cc3ccccn3)sc2c2cnn(Cc3c[nH]nn3)c(=O)c21  wild type PKR (Homo sapiens)       < 300 nM
3  Cn1c2nc(Cc3cc[nH]n3)sc2c2cnn(Cc3cc(C(N)=O)[nH]n3)c(=O)c21  wild type PKR (Homo sapiens)  301 to 800 nM

Could you share which AC50 value was measured for `Cn1c2nc(Cc3cc[nH]n3)sc2c2cnn(Cc3cncs3)c(=O)c21` ?
< 300 nM

* * *

# SYSTEM NAME: PKR K410E (Homo sapiens, UniProt P30613, K410E)
# Sequence (P30613 whole entry K410E): as the sequence (P30613 whole entry R510Q) above, with K410E, Q510R counted along it
# TEST NAME: PKR mutant assay (AC50), PKR K410E
# Assay type: biochemical
# EXPERIMENTAL CONDITIONS: PKR K410E mutant enzyme
REPORTED ENDPOINT: AC50

> print(dat)
                        structure.as.smiles                               system.name    result
1  Cn1c2nc(Cc3cc[nH]n3)sc2c2cnn(Cc3ccnn3N)c(=O)c21  PKR K410E (Homo sapiens, UniProt P30613, K410E)  < 300 nM

Could you share which AC50 value was measured for `Cn1c2nc(Cc3cc[nH]n3)sc2c2cnn(Cc3cc(=O)[nH][nH]3)c(=O)c21` ?
301 to 800 nM

Could you share which AC50 value was measured for `Cn1c2nc(Cc3ccccn3)sc2c2cnn(Cc3n[nH]cc3F)c(=O)c21` ?
< 300 nM

Could you share which AC50 value was measured for `Cn1c2nc(Cc3n[nH]cc3F)sc2c2cnn(Cc3ccc[nH]c3=O)c(=O)c21` ?
< 300 nM

Could you share which AC50 value was measured for `Cc1scnc1Cn1ncc2c3sc(Cc4cc[nH]n4)nc3n(C)c2c1=O` ?
< 300 nM

Could you share which AC50 value was measured for `Cn1c2nc(Cc3cscn3)sc2c2cnn(Cc3c[nH]nn3)c(=O)c21` ?
< 300 nM

Could you share which AC50 value was measured for `Cn1c2nc(Cc3cc[nH]n3)sc2c2cnn(Cc3cc[nH]c(=O)c3)c(=O)c21` ?
< 300 nM

Could you share which AC50 value was measured for `Cn1c2nc(Cc3cc[nH]n3)sc2c2cnn(Cc3ncc(N)s3)c(=O)c21` ?
< 300 nM

Could you share which AC50 value was measured for `Cn1c2nc(Cc3cc[nH]n3)sc2c2cnn(Cc3nc[nH]c3N)c(=O)c21` ?
301 to 800 nM

Could you share which AC50 value was measured for `Cn1c2nc(Cc3cscn3)sc2c2cnn(Cc3cscn3)c(=O)c21` ?
< 300 nM

* * *

# SYSTEM NAME: PKR K410E (Homo sapiens, UniProt P30613, K410E)
# TEST NAME: PKR mutant assay (AC50), PKR K410E
# Assay type: biochemical
# EXPERIMENTAL CONDITIONS: PKR K410E mutant enzyme
REPORTED ENDPOINT: AC50

Solved cases (4 shown):
> print(dat)
                        structure.as.smiles                               system.name         result
1  Cn1c2nc(Cc3ccccn3)sc2c2cnn(Cc3nccs3)c(=O)c21  PKR K410E (Homo sapiens, UniProt P30613, K410E)       < 300 nM
2  Cn1c2nc(Cc3ccccn3)sc2c2cnn(Cc3c[nH]nn3)c(=O)c21  PKR K410E (Homo sapiens, UniProt P30613, K410E)       < 300 nM
3  Cn1cc(C(N)=O)c(Cn2ncc3c4sc(Cc5cc[nH]n5)nc4n(C)c3c2=O)n1  PKR K410E (Homo sapiens, UniProt P30613, K410E)  301 to 800 nM
4  Cn1c2nc(Cc3ccccn3)sc2c2cnn(Cc3ccccn3)c(=O)c21  PKR K410E (Homo sapiens, UniProt P30613, K410E)       < 300 nM

Consider the record given below.
Could you share which AC50 value was measured for `Cn1c2nc(Cc3ccccn3)sc2c2cnn(Cc3csc(N)n3)c(=O)c21` ?
< 300 nM
